Each record here notes measured GI50.
tested on: NCI-H226; experiment: NCI tumour cell line growth inhibition, 48 h
The source made the active and inactive calls. Rule as the data show it: active = GI50 up to about 1.1 µM and inactive = higher.

Molecule	Assay system	GI50
NC(CCC(=O)O)(CCC(=O)O)CCC(=O)O	NCI-H226	> 100 µM (inactive)
S=C=NCc1ccccc1 [BENZYL ISOTHIOCYANATE]	NCI-H226	10.1 µM (inactive)
COc1cc(C2OC(N)=C(C#N)C3=C2C(C)CCC3)cc(OC)c1OC (stereo unspecified)	NCI-H226	68.7 µM (inactive)
COC(=O)CCc1c(Cc2ccc[nH]2)[nH]c(C(=O)OCc2ccccc2)c1C	NCI-H226	17.1 µM (inactive)
O=C(CC(=O)c1cccc2ccccc12)C(=O)Nc1nccs1	NCI-H226	> 100 µM (inactive)
O=C(NN1C(=O)CS(=O)(=O)C1c1cccc(F)c1)c1ccncc1 (stereo unspecified)	NCI-H226	> 100 µM (inactive)
CC[N+]1(C)CCC(O)(c2ccc(Cl)cc2)C(C(=O)c2ccc(Cl)cc2)C1 (stereo unspecified)	NCI-H226	23.8 µM (inactive)
CCCCCCCC/C=C\CCCCCCC/C=C1\C[C@](/C=C/C(=O)OC)(CO)OC1=O	NCI-H226	2.61 µM (inactive)
NS(=O)(=O)c1ccc(/N=N/c2ncccc2O)cc1	NCI-H226	> 100 µM (inactive)
NC(CCP(=O)(O)O)C(=O)O (stereo unspecified)	NCI-H226	> 100 µM (inactive)
COc1ccc(C2Cc3cc(OC)c(OC)c(OC)c3C2)cc1 (stereo unspecified)	NCI-H226	34.9 µM (inactive)

----------
tested on: RXF 393; test: NCI tumour cell line growth inhibition, 48 h
Activity calls are given as the source filed them. No stated cut-off is given here; in the data, active = GI50 up to about 1.1 µM and inactive = higher.

Compound	GI50
CC(Cl)CC(=O)OCC1CCCN2CCCCC12 (stereo unspecified)	> 100 µM (inactive)
CCOC(=O)CN1C(=O)c2c(c(C)n(-c3ccccc3)c2C)C1=O	26 µM (inactive)
CC1=NN2C(c3ccc(C)cc3)=CSC2=NC(C)(C)C1	> 100 µM (inactive)
O=C(CSC1=NCCN1)Nc1ccccc1	13.8 µM (inactive)
COC(=O)CCC(=O)c1ccc2c(c1)CC1(C2)Cc2ccc3c(c2C1)CCCC3=O (stereo unspecified)	> 53 µM (inactive)
O=C1N[C@@H](c2c[nH]c3ccc(Br)cc23)C(=O)N[C@H]1c1c[nH]c2ccc(Br)cc12	15.6 µM (inactive)

----------
test system: OVCAR-8; experiment: NCI tumour cell line growth inhibition, 48 h
Active and inactive are the calls of the source. No stated cut-off is given here; in the data, active = GI50 up to about 1.1 µM and inactive = higher.
Form field: GI50 (one value per entry).

Compound	GI50
CC1ON2CCCC2[C@H]1C(=O)N1C2CC3CCC2(CS1(=O)=O)C3(C)C (some centres undefined)	> 100 µM (inactive)
COc1c(C(=O)O)oc2c(OC)cccc12	> 100 µM (inactive)
N#C/C(=C1\SC(C(N)=O)=C(N)N1c1ccccc1)c1nc2ccccc2[nH]1	> 100 µM (inactive)
N=c1oc2ccccc2cc1C(=O)Nc1nccs1	16.8 µM (inactive)
C#CCOC(=O)c1ccc(OC(C)=O)cc1	> 100 µM (inactive)
CC1C=CC(C)C2(O)C(=O)NC(O)C12 (centres undefined)	> 100 µM (inactive)
CN(C)CC1(C)CC/C(=C\c2ccc3c(c2)OCO3)C1=O (centres undefined)	> 100 µM (inactive)
COc1ccc2nc3cc(Cl)ccc3c(NCCCN3CCN(CCCNc4ccc5nnn6c7ccccc7c(=O)c4c56)CC3)c2c1	1.42 µM (inactive)
Cc1cc(S(=O)(=O)O)ccc1/N=N/c1ccc(/N=N/c2c(O)ccc3ccccc23)c(C)c1	49.8 µM (inactive)

----------
tested on: HCT-15
Peptide text beside a SMILES is read from it. * marks the point of attachment. Boc = CC(C)(C)OC(=O)*
Rule: measured GI50 below 20 µM gets YES; anything equal to or greater than 20 µM gets NO.

Compound	Label
CCOC(=O)CCC(NC(=O)Cc1ccc(Nc2nc3ccccc3nc2-c2cccs2)cc1)C(=O)OCC (configuration not stated)	NO
CCCCn1c(C)c2c(c1C)C(=O)N(CC(O)CN1CCc3ccccc3C1)C2=O (configuration not stated)	NO
CC(C)N1CC2CC(CN(C(=O)c3ccccc3)C2)C1.[O-][Cl+3]([O-])([O-])O	NO
NCc1c(C(N)=O)ncn1Cc1ccccc1	NO
C#CCCCC(=O)N(C(=O)C[S+]([O-])CC)c1ccccc1 (configuration not stated)	NO
CCOC(=O)c1c[nH]c2cc3c(cc2c1=O)CCS3	NO
O=C/C=C/c1ccco1	NO
COc1ccc(C(=O)OC2C=COC(C)C2OC(=O)c2ccc(OC)cc2)cc1 (configuration not stated)	YES
CC1OC(OC2C(CO)OC(O[C@H]3CC[C@@]4(C)C(=CC[C@H]5[C@@H]6C[C@@H]7O[C@](O)(CC[C@H](CO)COC8OC(CO)C(O)C(O)C8O)[C@@H](C)[C@@H]7[C@@]6(C)CC[C@@H]54)C3)C(OC3OC(C)C(O)C(O)C3O)C2O)C(O)C(O)C1O (some centres not stated)	NO
CC(=O)Nc1ccc(-c2nnc(SCC(=O)Nc3ccccc3[N+](=O)[O-])o2)cc1	NO
NC(CCP(=O)(O)O)C(=O)O (configuration not stated)	NO
COc1nc(NC2OC(COC(C)=O)C(OC(C)=O)C(OC(C)=O)C2OC(C)=O)c(/N=C/C=N/c2c(NC3OC(COC(C)=O)C(OC(C)=O)C(OC(C)=O)C3OC(C)=O)nc(OC)n(C)c2=O)c(=O)n1C (configuration not stated)	NO
COC(=O)NC(Cc1ccccc1)NC(C)=O (configuration not stated)	NO
Cc1ccc(S[C@@H](C)[C@@](O)(CF)CN(Cc2ccccc2)C(=O)C(F)(F)F)cc1	YES
C=C(C)C(O)C(O)c1c(OC)ccc2ccc(=O)oc12 (configuration not stated)	NO
NC(=O)c1nnsc1N/N=C/c1ccc([N+](=O)[O-])cc1	NO
C[C@H](N)C(=O)N[C@@H]1[C@H]2C(=C(O)C[C@@H](O)[C@@H]2O)C(=O)O[C@]1(C)C(Cl)Cl	YES
CC[N+]1(C)CCC(O)(c2ccc(Cl)cc2)C(C(=O)c2ccc(Cl)cc2)C1 (configuration not stated)	NO
CN(C)CCNC(=O)c1cccc2nc3c(Cl)cccc3nc12	YES
C=C(C)C1CCC2=CC(CC3(C)OC3C3=CC(C(=O)OC)=C(C1)O3)OC2=O (configuration not stated)	NO
COC(=O)CCc1c(Cc2ccc[nH]2)[nH]c(C(=O)OCc2ccccc2)c1C	YES
COC(=O)C(Cc1c[nH]c2ccccc12)NC(=O)C(Cc1c[nH]c2ccccc12)NC(=O)C(Cc1c[nH]c2ccccc12)NC(=O)C(Cc1c[nH]c2ccccc12)NC(=O)C(Cc1c[nH]c2ccccc12)NC(=O)OC(C)(C)C (configuration not stated) (Boc-WWWWW-OMe; configuration not given here)	NO
O=c1c(C(c2ccc([N+](=O)[O-])cc2)c2c(O)c3ccccc3n(-c3ccccc3)c2=O)c(O)c2ccccc2n1-c1ccccc1	YES
Cc1cccc(N/C(=C(/C(Cl)=C(Cl)Cl)[N+](=O)[O-])n2nnc3ccccc32)c1	YES
O=C1N[C@@H](c2c[nH]c3ccc(Br)cc23)C(=O)N[C@H]1c1c[nH]c2ccc(Br)cc12	YES
CCCCOc1ccc(/C=C/C2=[N+](CCO)CCO2)cc1	NO
CC(=O)N(CN1C(=O)CCC1C(=O)O)c1ccccc1 (configuration not stated)	NO
COC(=O)C1C2OC(C)(C)OC2CN1S(=O)(=O)c1ccc(C)cc1 (configuration not stated)	NO
O=c1nc2sc3ccc4ccccc4c3n2nc1-c1ccccc1	NO
Nc1ccc(C(=O)N/C(=C\c2ccc3c(c2)OCO3)c2nc3ccc4c(c3[nH]2)C(=O)c2ccccc2C4=O)cc1	NO
COC(=O)/C=C1/OC(c2ccc(C)cc2C)=CC1=O	YES
COc1ccc(C2S/C(=C\c3cccc([N+](=O)[O-])c3)C(=O)N2NC(=O)Cc2ccccc2)cc1 (configuration not stated)	NO
COc1ccc2c(c1)SC1=Nc3sc4cc(OC)ccc4[n+]3CN12	NO
CC(=O)OC1COC(n2c(=S)n(-c3ccc(C)cc3)c(=O)c3ccccc32)C(OC(C)=O)C1OC(C)=O (configuration not stated)	NO
O=C(O)c1ccccn1	NO
CN(C)S(=O)(=O)Nc1nnc(S(N)(=O)=O)s1	NO
CN(C)CC1(C)CC/C(=C\c2ccc3c(c2)OCO3)C1=O (configuration not stated)	NO

----------
Recorded measurements of GI50, one per entry
tested on: T47D; experiment: NCI tumour cell line growth inhibition, 48 h
Activity calls are given as the source filed them. Rule as the data show it: active = GI50 up to about 1.1 µM and inactive = higher.
Readout kind: GI50

Compound	Endpoint value
Nc1ccccc1C(=O)NNC(=O)c1ccccc1N	> 100 µM (inactive)
NC(=O)c1ccc(NCC2=CC(=O)C=CC2=O)cc1	28.1 µM (inactive)
COc1ccc2nc3cc(Cl)ccc3c(NCCCN3CCN(CCCNc4ccc5nnn6c7ccccc7c(=O)c4c56)CC3)c2c1	> 25 µM (inactive)
CC(=O)ON(C(C)=O)c1ccc(-c2nc3ccccc3s2)cc1	17.4 µM (inactive)
Cc1ccc(S[C@@H](C)[C@@](O)(CF)CN(Cc2ccccc2)C(=O)C(F)(F)F)cc1	28.8 µM (inactive)
CC(=O)N(CN1C(=O)CCC1C(=O)O)c1ccccc1 (stereo not given)	> 57.3 µM (inactive)
O=C(Nc1ccccc1)Nn1c(-c2cccs2)nc2ccc(I)cc2c1=O	3.33 µM (inactive)
CSC(CC(=O)O)C(=O)O (stereo not given)	> 100 µM (inactive)
COc1ccc(N2C(=O)C3c4[nH]c5cc(Cl)ccc5c4C4CCC(C(C)(C)C)CC4C3C2=O)cc1 (stereo not given)	66.4 µM (inactive)
CCOC(=O)Nc1cc(NC(/C=N/NC(C)=O)C(=O)OCC)c(OC)cc1NC(C)=O (stereo not given)	> 100 µM (inactive)

Data origin: ChEMBL document CHEMBL1201862
